- System: galium
- Assay details: Test C preemergence
- Type: in vivo, Galium aparine
- Test parameters: Preemergence, 31 g ai/ha; scale 0 to 100, 0 no effect, 100 complete control
Provide the recorded Plant response rating, Galium for the entries that follow.

Q: Name the reported Plant response rating, Galium value associated with the compound N#Cc1cccc(Oc2ncc(Cl)cn2)c1-n1cc(OC(F)F)cn1
Result: 90

Q: Can you handle FC(F)c1cccc(Oc2ncc(Cl)cn2)c1-n1cc(C(F)(F)F)cn1 next?
Result: 98

Q: Let us now turn to Fc1cnc(Oc2cccc(C(F)F)c2-n2cc(Cl)cn2)nc1
Result: 98

Q: How about N#Cc1cnn(-c2c(C#N)cccc2Oc2ncc(Br)cn2)c1 ?
Result: 80

Q: One more compound: Fc1cnc(Oc2cccc(C(F)F)c2-n2cc(C(F)(F)F)cn2)nc1
Result: 100

====

Field: Johnsongrass plant response rating. Provide a value for each of the compounds that follow.
- Test system: johnsongrass
- Assay details: Test C postemergence
- Assay type: in vivo, Sorghum halepense
- Test parameters: 31 g ai/ha, postemergence; visual rating, scale 0 to 100 (0 no effect, 100 complete control), 13 to 15 days
Output: the number by itself.

Q: Look up Johnsongrass plant response rating: Fc1cnc(Oc2cccc(C(F)F)c2-n2cc(C(F)(F)F)cn2)nc1 [Compound 164]
Result: 0

Q: Also Clc1cnc(Oc2cccc(Cl)c2-n2cc(Cl)cn2)nc1 [Compound 220] ?
Result: 0

Q: Next: N#Cc1cnn(-c2c(C#N)cccc2Oc2ncc(Cl)cn2)c1 [Compound 200]
Result: 5

Q: Another: FC(F)c1cccc(Oc2ncc(Br)cn2)c1-n1cc(C(F)(F)F)cn1 [Compound 163]
Result: 5

Q: What do you get for N#Cc1cnn(-c2c(Oc3ncc(F)cn3)cccc2C(F)F)c1 [Compound 240] ?
Result: 5

====

Provide the recorded Plant response rating (0 to 100), Ragweed for the entries that follow.
- System: ragweed
- Assay details: Test C postemergence
- Assay type: in vivo, Ambrosia elatior
- Test parameters: 16 g ai/ha, postemergence; 0 is no effect, 100 is complete control
# print the numeric value only

Q: Entry N#Cc1cn(-c2c(C#N)cccc2Oc2ncc(Cl)cn2)nn1 [Compound 273] has what Plant response rating (0 to 100), Ragweed?
Result: 30

Q: Consider next the compound FCc1cn(-c2ccccc2Oc2ncc(Cl)cn2)nn1 [Compound 123] in the same way.
Result: 35

Q: Item: FC(F)c1cccc(Oc2ncc(Br)cn2)c1-n1cc(C(F)(F)F)cn1 [Compound 163]
Result: 10

Q: Also check N#Cc1cnn(-c2c(Oc3ncc(F)cn3)cccc2C(F)F)c1 [Compound 240]
Result: 35

Q: Can you handle FC(F)Oc1cnn(-c2c(Cl)cccc2Oc2ncc(Cl)cn2)c1 [Compound 258] next?
Result: 25

Q: Param item: Clc1cnc(Oc2cccc(Br)c2-n2cc(I)nn2)nc1 [Compound 117]
Result: 25

Q: Would you mind doing FCc1cccc(Oc2ncc(Cl)cn2)c1-n1cc(I)cn1 [Compound 245] as well?
Result: 35

Q: Try Clc1cnc(Oc2ccccc2-n2cc(Br)nn2)nc1 [Compound 223] next.
Result: 10

====

- Test system: johnsongrass
- Assay details: Test C postemergence
- Type: in vivo, Sorghum halepense
- Test parameters: 125 g ai/ha, postemergence; visual rating, scale 0 to 100 (0 no effect, 100 complete control)
Measured attribute: Plant response rating, Johnsongrass
When you answer, write just the number.

Q: What does the record list as Plant response rating, Johnsongrass for N#Cc1cn(-c2c(C#N)cccc2Oc2ncc(Cl)cn2)nn1 ?
Result: 5

Q: Check FCc1cccc(Oc2ncc(Cl)cn2)c1-n1cc(I)cn1 too.
Result: 10

Q: N#Cc1cnn(-c2c(Oc3ncc(F)cn3)cccc2C(F)F)c1 ?
Result: 10

Q: What about this compound? Clc1cnc(Oc2cccc(Cl)c2-n2cc(I)cn2)nc1
Result: 20

Q: // next record FC(F)c1cnn(-c2c(Cl)cccc2Oc2ncc(Cl)cn2)c1
Result: 10

Q: What about this compound? Clc1cnc(Oc2ccccc2-n2cc(Br)nn2)nc1
Result: 5

Q: Here is the next compound: Fc1cnc(Oc2cccc(C(F)F)c2-n2cc(C(F)(F)F)cn2)nc1
Result: 10

Q: One more compound: Cc1cnc(Oc2cccc(C#N)c2-n2cc(C(F)(F)F)cn2)nc1
Result: 5

Q: What would you report for Clc1cnc(Oc2cccc(Br)c2-n2cc(I)nn2)nc1 ?
Result: 5

====

- Test system: velvetleaf
- Assay details: Test C postemergence
- Assay type: in vivo, Abutilon theophrasti
- Test parameters: 125 g ai/ha, postemergence; visual rating, scale 0 to 100 (0 no effect, 100 complete control)
Measured attribute: Plant response rating, Velvetleaf
No unit in the answer, please; the number alone is enough.

Q: I am curious: what Plant response rating, Velvetleaf value has been reported for Fc1cnc(Oc2cccc(C(F)F)c2-n2cc(C(F)(F)F)cn2)nc1 ?
Result: 65

Q: Same question for FC(F)c1cnn(-c2c(Br)cccc2Oc2ncc(Cl)cn2)c1 please.
Result: 65

Q: And then FC(F)Oc1cnn(-c2c(Cl)cccc2Oc2ncc(Cl)cn2)c1 , what is it?
Result: 80

Q: Then this compound: N#Cc1cn(-c2c(C#N)cccc2Oc2ncc(Cl)cn2)nn1
Result: 30

Q: Further, for N#Cc1cnn(-c2c(C#N)cccc2Oc2ncc(Cl)cn2)c1 ?
Result: 75

====

- Test system: giant foxtail
- Assay details: Test A preemergence
- Type: in vivo, Setaria faberii
- Test parameters: 125 g ai/ha
- Description: […]
Measured attribute: Foxtail, Giant plant response rating (0 to 100 scale)
Provide a numeric answer; units are not to be included.

Q: Can you look up the measured Foxtail, Giant plant response rating (0 to 100 scale) of FCc1cccc(Oc2ncc(Br)cn2)c1-n1cc(I)cn1 for me?
Result: 80

Q: Note, next up: Cc1cc(C(F)(F)F)nn1-c1ccccc1Oc1ncc(Cl)cn1
Result: 0

Q: What do we get for NC(=S)c1cccc(Oc2ncc(Cl)cn2)c1-n1cc(Cl)cn1 ?
Result: 100

Q: Try this compound too: N#Cc1cccc(Oc2ncc(Cl)cn2)c1-n1cccn1
Result: 20

Q: Further, for FC(F)c1cccc(Oc2ncc(Br)cn2)c1-n1cc(Cl)cn1 ?
Result: 100

Q: Proceed to N#Cc1cnc(Oc2ccccc2-n2cc(Br)cn2)nc1
Result: 0

Q: And then CC1(C)OB(c2cnn(-c3c(C#N)cccc3Oc3ncc(Cl)cn3)c2)OC1(C)C , what is it?
Result: 20

Q: Same question for COc1cnc(Oc2ccccc2-n2cc(Br)cn2)nc1 please.
Result: 60

Q: # iterate: O=Cc1cccc(Oc2ncc(Cl)cn2)c1-n1cc(I)cn1
Result: 0

Q: And what about the compound N#Cc1cnn(-c2c(C#N)cccc2Oc2ncc(Cl)cn2)c1 ?
Result: 100

Q: Queued: N#Cc1cccc(Oc2ncc(Cl)cn2)c1-n1cc(C(F)F)cn1
Result: 100

Q: Now the same for FC(F)Oc1cnn(-c2c(Cl)cccc2Oc2ncc(Cl)cn2)c1
Result: 100

Q: For C[Si](C)(C)C#Cc1cccc(Oc2ncc(Cl)cn2)c1-n1cc(Br)cn1 then?
Result: 20

Q: Also, COc1cnn(-c2ccccc2Oc2ncc(Cl)cn2)c1 please.
Result: 80

====

Consider the following molecules; for each one, report its Morningglory plant response rating (0 to 100 scale).
- System: morningglory
- Assay details: Test A preemergence
- Type: in vivo, Ipomoea spp.
- Test parameters: 125 g ai/ha
Response field accepts a number only; no unit should be typed.

Q: Given the molecule FC(F)c1cccc(Oc2ncc(Cl)cn2)c1-n1cc(C(F)(F)F)cn1 , what is its reported Morningglory plant response rating (0 to 100 scale)?
Result: 20

Q: Same again, this time with Clc1cnc(Oc2cccc(Br)c2-n2cc(Cl)cn2)nc1
Result: 0

Q: Also check N#Cc1cnn(-c2c(C#N)cccc2Oc2ncc(Cl)cn2)c1
Result: 90

Q: How about this molecule: FC(F)c1cnn(-c2c(Br)cccc2Oc2ncc(Cl)cn2)c1
Result: 20

Q: Also NN=Cc1cccc(Oc2ncc(Cl)cn2)c1-n1cc(Cl)cn1 ?
Result: 0

Q: Record: Fc1cccc(Oc2ncc(Cl)cn2)c1-n1cc(Cl)cn1
Result: 20

====

- Tested on: velvetleaf
- Assay details: Test C preemergence
- Assay type: in vivo, Abutilon theophrasti
- Test parameters: 16 g ai/ha, preemergence; scale 0 to 100 (0 no effect, 100 complete control)
Measured attribute: Velvetleaf plant response rating
Answer as a number with no unit attached.

Q: So what's the measured Velvetleaf plant response rating for this one? N#Cc1cnn(-c2c(C#N)cccc2Oc2ncc(Br)cn2)c1
Result: 40

Q: // next record Cc1cnc(Oc2cccc(C#N)c2-n2cc(C(F)(F)F)cn2)nc1
Result: 75

Q: Repeat for the following molecule: FC(F)c1cccc(Oc2ncc(Cl)cn2)c1-n1cc(C(F)(F)F)cn1
Result: 25

Q: Record: CC(C)c1cnn(-c2c(C#N)cccc2Oc2ncc(Cl)cn2)c1
Result: 35
